Hey, just so you know, these numbers are from patent US7365067B2.

- target.or.system: NK2 receptor (Cavia porcellus, UniProt Q64077)
- Construct: in normal guinea pigs (body weights: about 500 g, Hartley male guinea pigs); from tissue; host or cells: airways of live Hartley male guinea pigs (in vivo)
- Sequence (Q64077 whole entry): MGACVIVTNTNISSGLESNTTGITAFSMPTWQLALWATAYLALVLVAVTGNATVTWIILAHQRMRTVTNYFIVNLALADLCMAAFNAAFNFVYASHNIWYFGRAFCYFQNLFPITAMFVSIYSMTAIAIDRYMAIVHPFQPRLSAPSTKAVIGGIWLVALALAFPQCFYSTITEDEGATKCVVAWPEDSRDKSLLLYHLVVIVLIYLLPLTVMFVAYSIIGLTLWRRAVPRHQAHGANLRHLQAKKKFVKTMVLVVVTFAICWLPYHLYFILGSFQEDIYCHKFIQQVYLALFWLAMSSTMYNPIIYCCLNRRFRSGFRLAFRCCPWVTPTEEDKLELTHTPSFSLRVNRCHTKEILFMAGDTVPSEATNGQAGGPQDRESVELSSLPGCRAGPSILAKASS
- protocol.text: Inhibitory Action on Airway Contraction (In Vivo, Transtracheal Administration), induced by neurokinin A (NKA)
- Parameters: species or system guinea pig
- reported.conditions: Hartley male guinea pigs; 10 μg/kg transtracheal; NKA 4 μg/kg i.v. administered 16 hours after test substance; relative to 5% glucose control group
measured.parameter: Inhibition Rate (%) of NKA-induced airway contraction

>>> experimental_value("CN(CCCCO)C(=O)CO[C@H]1Cc2ccccc2C12CCN(CC[C@@]1(c3ccc(Cl)c(Cl)c3)CN(C(=O)c3cc(C(F)(F)F)cc(C(F)(F)F)c3)CCO1)CC2.Cl")
90
>>> experimental_value("Cl.O=C(CO[C@H]1Cc2ccccc2C12CCN(CC[C@@]1(c3ccc(Cl)c(Cl)c3)CN(C(=O)c3cc(C(F)(F)F)cc(C(F)(F)F)c3)CCO1)CC2)NCCO")
93
>>> experimental_value("CN(CCO)C(=O)CO[C@H]1Cc2ccccc2C12CCN(CC[C@@]1(c3ccc(Cl)c(Cl)c3)CN(C(=O)c3cc(C(F)(F)F)cc(C(F)(F)F)c3)CCO1)CC2.Cl")
89
>>> experimental_value("Cl.Cl.O=C(CN1CCOCC1)O[C@H]1Cc2ccccc2C12CCN(CC[C@@]1(c3ccc(Cl)c(Cl)c3)CN(C(=O)c3cc(C(F)(F)F)cc(C(F)(F)F)c3)CCO1)CC2")
97

###

- target.or.system: NK2 receptor (Cavia porcellus, UniProt Q64077)
- Construct: in normal guinea pigs (body weights: about 500 g, Hartley male guinea pigs); from tissue; host or cells: airways of live Hartley male guinea pigs (in vivo)
- protocol.text: Inhibitory Action on Airway Contraction (In Vivo, Transtracheal Administration), induced by neurokinin A (NKA)
- Parameters: species or system guinea pig
- reported.conditions: Hartley male guinea pigs; 10 μg/kg transtracheal; NKA 4 μg/kg i.v. administered 16 hours after test substance; relative to 5% glucose control group
measured.parameter: Inhibition Rate (%) of NKA-induced airway contraction

>>> experimental_value("Cl.Cl.O=C(CO[C@H]1Cc2ccccc2C12CCN(CC[C@@]1(c3ccc(Cl)c(Cl)c3)CN(C(=O)c3cc(C(F)(F)F)cc(C(F)(F)F)c3)CCO1)CC2)N(CCO)CCO")
82
>>> experimental_value("CN(CCCO)C(=O)CO[C@H]1Cc2ccccc2C12CCN(CC[C@@]1(c3ccc(Cl)c(Cl)c3)CN(C(=O)c3cc(C(F)(F)F)cc(C(F)(F)F)c3)CCO1)CC2.Cl")
87
>>> experimental_value("Cl.O=C(CO[C@H]1Cc2ccccc2C12CCN(CC[C@@]1(c3ccc(Cl)c(Cl)c3)CN(C(=O)c3cc(C(F)(F)F)cc(C(F)(F)F)c3)CCO1)CC2)N1CCC(CCO)CC1")
88
